Values compiled from the Human Domainome abundance scans (Beltran et al. 2025).

B1: Double-stranded RNA-binding protein Staufen homolog 1, residues 183 to 249; numbered along this chain, O95793 (parent)
chain: KSEISQVFEIALKRNLPVNFEVARESGPPHMKNFVTKVSVGEFVGEGEGKSKKISKKNAAIAVLEEL

Variants of: B1
measurement.description: abundance fitness (aPCA) (normalised: wild type 0, dead -1); higher = more abundant; growth selection in yeast, the domain comes from the species named
condition.details: Homo sapiens
Classes are defined on abundance fitness with ranges low value (below -0.4), medium value (-0.4 to below -0.06), high value (-0.06 or more)

A60M    medium value
R24W    medium value
V44L    medium value
G41F    low value
T36S    medium value

Kindly consider the entry below.
Query: Lab note: sort V63S into the matching abundance fitness band.
Result: low value
